Origin of measurements: PubChem BioAssay (NCI)

Entries annotated with measured TGI
Tested on: UO-31 renal
EXPERIMENT SUMMARY: NCI tumour cell line growth inhibition, 48 h
REPORTED METRIC: TGI (µM)

1) O=C(Cc1nc2ccccc2[nH]c1=O)c1c[nH]c2ccccc12 :: 33.7
2) CN=c1sc2nc(C#N)c(C#N)nc2n1C :: 51.3
3) Cc1cc(Cl)ccc1NC(=O)C1C(=O)N(c2ccc(Cl)cc2C)C(=O)/C1=N\NC(N)=S (centres undefined) :: 41.1
4) COc1ccc(C2Cc3cc(OC)c(OC)c(OC)c3C2)cc1 (centres undefined) :: 64.8

###

System: T-47D breast
EXPERIMENT SUMMARY: NCI tumour cell line growth inhibition, 48 h; in the data active = GI50 below about 0.43 µM; inactive = the rest
Possible outcomes: true (1) (active), false (0) (inactive)

1) CCOC(=O)/C(=C\c1ccc2ccccc2c1)P(=O)(OCC)OCC :: false (0)
2) CN1CC[C@H](c2c(O)cc(O)c3c(=O)cc(-c4ccccc4Cl)oc23)[C@H](O)C1 :: true (1)
3) COc1cc2c3c(n(CCCNCCCNCCCN)c(=O)c2cc1OC)-c1cc2c(cc1C3=O)OCO2 :: false (0)
4) CS(=O)(=O)Nc1cc(-c2ccc3ncnc(Nc4cccc(Cl)c4)c3c2)cnc1Cl :: true (1)
5) COc1ccc(C2NC(=S)NC3=C2CCOc2c3ccc3ccccc23)cc1 (configuration not stated) :: false (0)
6) N#[N+]c1ccc(Nc2ccccc2)cc1 :: false (0)
7) CCOC(=O)[C@@H]1CSC(CC)=C(C(=O)O)N1 :: false (0)
